- test: NCI Yeast Anticancer Drug Screen. Data for the cln2 rad14 strain (AID 165);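 also: 0% = growth equal to vehicle treated cultures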
- conditionSet: S. cerevisiae cln2 rad14 strain, at 50.0 µM (retest, dose inferred, filed as 5.0)
About 79,000 compounds went through this panel and 15% of them were active in at least one assay; those are over-represented in the sample as a whole. The source made the active and inactive calls. Rule as the data show it: active = growth inhibition above about 70%; inactive = the rest.
Would you mind answering with one of these outcomes? Yes = active, No = inactive

Solved entries (count: 5):
> print(dat)
                                   compound  classassignment
1                 Cc1cc(Cc2ccc(Cl)cc2)ccc1O              Yes
2  O=C(CNc1cccc([N+](=O)[O-])c1)Nn1c(-c2ccccc2)nc2ccccc2c1=O               No
3    Cc1cccc(Cl)c1NC(=S)Nc1cccc(C(F)(F)F)c1               No
4     C/C(=N\NC(=S)N1CCCC1)c1nc2ncccc2[nH]1              Yes
5  CC(C)(C[NH-])C[NH-].[Cl][Pt+2]([Cl])([Cl])[Cl]              Yes

[ask] What call does the record list for NSc1ccc(N)s1 ?
[reply] No

[ask] What call does the record list for COC(=O)c1c[nH]c2ccc(Br)cc12 ?
[reply] No

[ask] What call does the record list for CCCCOC(=O)c1ccc(O)c(OC)c1 ?
[reply] No

[ask] What call does the record list for OC(CN1CCC(c2ccccc2)CC1)c1ccc(Br)cc1 (stereo unspecified) ?
[reply] Yes

---

- test: NCI Yeast Anticancer Drug Screen. Data for the mec2-1 strain (AID 157)
- conditionSet: S. cerevisiae mec2-1 strain, at 50.0 µM (retest, dose inferred, filed as 5.0)
This is part of a sample that, as a whole, favours compounds with a hit. Of some 79,000 tested, about 15% had one in any assay. Calls of active or inactive are those of the source. Rule as the data show it: active = growth inhibition above about 70%; inactive = the rest.
Would you mind answering with one of these outcomes? YES = active, NO = inactive

> print(dat)
                                   compound  classassignment
1  CN(C)CCNC(=O)c1cccc2ccc(-c3ccc(-c4ccccc4)cc3)nc12              YES
2  CCCCCCCCCCCCOP(=O)(N1CC1(C)C)N1CC1(C)C (centres undefined)              YES

[ask] What call does the record list for CC(=O)Oc1cc(OC(C)=O)c2cc(Br)ccc2c1OC(C)=O ?
[reply] NO

[ask] What call does the record list for Cc1cccc(/C=N/NC(=S)Nc2ccc(Cl)cc2)n1 ?
[reply] YES

[ask] What call does the record list for Cc1cn(C2CC(Br)C(COC(c3ccccc3)(c3ccccc3)c3ccccc3)O2)c(=O)[nH]c1=O (centres undefined) ?
[reply] YES

[ask] What call does the record list for Cc1ccc(-n2cc(-c3ccc(Cl)cc3)c3c(NN)ncnc32)cc1 ?
[reply] NO

[ask] What call does the record list for O=C(COc1ccc2ccccc2c1)NC1c2ccccc2Oc2ccccc21 ?
[reply] YES

[ask] What call does the record list for Clc1ccc(-c2nnn3ccccc23)cc1 ?
[reply] NO

[ask] What call does the record list for CCNC(=O)NNc1ncnc2c1c(-c1ccc(Cl)cc1)cn2-c1ccc(C)cc1 ?
[reply] YES

[ask] What call does the record list for CC1CC(N)=NC1C(=O)NCCC#N (centres undefined) ?
[reply] NO

---

- test: NCI Yeast Anticancer Drug Screen. Data for the sgs1 mgt1 strain (AID 161);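 also: 0% = growth of cultures given vehicle only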
- conditionSet: S. cerevisiae sgs1 mgt1 strain, at 50.0 µM
This is part of a sample that, as a whole, favours compounds with a hit. Of some 79,000 tested, about 15% had one in any assay. Active and inactive are the calls of the source. Cut-off read from the data, not from the text of the source: active = growth inhibition above about 70%; inactive = the rest.
Would you mind answering with one of these outcomes? 1 (active), 0 (inactive)

Solved entries (count: 5):
> print(dat)
                                   molecule  classassignment
1         CCCCCCCCCCCCCCC(=O)OCC[N+](C)(C)C                1
2      CCN(CC)CCC(=O)c1ccc(Oc2ccc(C)cc2)cc1                0
3  CC(C)(C)OC(=O)c1ccc(NCC2=C(Br)C(=O)C=CC2=O)cc1                1
4  O=S(=O)(O)C(O)c1ccc2ccc3cccc4ccc1c2c34 (stereo unspecified)                0
5  COc1cc(Nc2ccc(Oc3ccc(O)cc3)cc2)c2ncccc2c1                0

Now look at this entry.
[ask] What call does the record list for COCc1ccc([N+](=O)[O-])o1 ?
[reply] 1

---

- test: NCI Yeast Anticancer Drug Screen. Data for the rad50 strain (AID 155);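 also: 0% = growth of vehicle-only cultures of the same strain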
- conditionSet: S. cerevisiae rad50 strain growth inhibition; at 50.0 µM (retest, dose inferred, filed as 5.0); hits give high values
The panel holds about 79,000 compounds, 15% with a hit somewhere; the sample as a whole holds those more often.
Some molecules, each annotated with its measured growth inhibition.
Note: unit % is implicit; provide only the numeric part.

> print(dat)
                                   molecule       endpointname  result
1  BrC1(c2ccccc2)C[n+]2c(-c3ccccc3)cc(-c3ccccc3)cc2-c2ccccc21 (configuration not stated)  growth inhibition      99
2                        Nc1ccccc1Sc1ccccc1  growth inhibition      58
3  C=C1CCC[C@@H]2[C@@](C)(CC3=CC(=O)C=CC3=O)C(C)CC[C@]12C (some centres not stated)  growth inhibition      96

Looking up Cc1ccc(C(c2ccc(N(C)C)cc2)c2ccc(N(C)C)cc2)cc1 , I see its growth inhibition listed as 89

Looking up ICCCCCCCCCC[n+]1ccc2ccccc2c1 , I see its growth inhibition listed as 98

Looking up Clc1ccc(CSCCc2ccncc2)cc1Cl , I see its growth inhibition listed as 98

Looking up O=C(c1ccc(O)c(Br)c1)c1cc(Br)ccc1O , I see its growth inhibition listed as 98

Looking up CCCCCCCCNc1ncnc2c1cnn2C , I see its growth inhibition listed as 69

Looking up O=C1C2=C(C(=O)c3cnccc31)C1C=CC2CC1 (configuration not stated) , I see its growth inhibition listed as 71

Looking up CCNC(=S)N/N=C(\C)c1cccc(C)n1 , I see its growth inhibition listed as 21

Looking up CC(CN1CCOCC1)(CN1CCOCC1)[N+](=O)[O-] , I see its growth inhibition listed as 99

Looking up CC1CC(c2ccccc2)(c2ccccc2)C(=O)C(C)N1C (configuration not stated) , I see its growth inhibition listed as 22

---

Some molecules, each annotated with its measured growth inhibition.
- test: NCI Yeast Anticancer Drug Screen. Data for the mec2-1 strain (AID 157)
- conditionSet: S. cerevisiae mec2-1 strain, at 5.0 µM (retest, dose inferred, filed as 0.5), hits give high values
The panel holds about 79,000 compounds, 15% with a hit somewhere; the sample as a whole holds those more often.
Note: unit % is implicit; provide only the numeric part.

Known growth inhibition results, listed for orientation:
> print(dat)
                                   molecule  u  result
1  Oc1cc(O)c2c(c1)OC(c1ccc(O)c(O)c1)C(OC1(c3cc(O)c(O)c(O)c3)Oc3cc(O)cc(O)c3C(O)C1O)C2 (configuration not stated)  %      -5
2  c1ccc2c(c1)cc(C1NCCc3[nH]cnc31)c1ccccc12 (configuration not stated)  %      -4

Looking up CC(=O)CC(C)=NCCN=C(C)CC(C)=O.[Pd] , I see its growth inhibition listed as -1

Looking up O=c1oc2ccccc2c(O)c1/C=N/C(=S)NCc1ccccc1 , I see its growth inhibition listed as -11

---

- test: NCI Yeast Anticancer Drug Screen. Data for the bub3 strain (AID 167)
- conditionSet: S. cerevisiae bub3 mutant strain, at 50.0 µM
The panel holds about 79,000 compounds, 15% with a hit somewhere; the sample as a whole holds those more often. Calls of active or inactive are those of the source. No stated cut-off is given here; in the data, active means growth inhibition above about 70%; inactive means the rest.
Would you mind answering with one of these outcomes? TRUE for active, FALSE for inactive

Solved entries (count: 5):
> print(dat)
                                   compound  classassignment
1       CCCCCCCCCCCCCCCCCCNCCCCCCCCCCCCCCCC            FALSE
2  CCOC(=O)C1=C(N)OC(c2ccccc2)=C(C#N)C1c1ccc(C)cc1 (configuration not stated)             TRUE
3  CC1CCC(NCCOC(=O)c2ccc([N+](=O)[O-])cc2)CC1 (configuration not stated)            FALSE
4        O=C1C=CC(=Nc2cccc3c2-c2ccccc2C3)O1             TRUE
5         Cc1ccc(/[N+]([O-])=C/c2ccccc2)cc1             TRUE

[ask] What call does the record list for NC(N)=Nc1ccc(C(=O)Oc2c(Cl)cc([N+](=O)[O-])cc2Cl)cc1 ?
[reply] FALSE

[ask] What call does the record list for Cc1ccc(S)c(S)c1 ?
[reply] FALSE

[ask] What call does the record list for [O-]c1c(-c2cccc3ccccc23)sc(-c2cccc3ccccc23)[n+]1-c1ccccc1 ?
[reply] FALSE

[ask] What call does the record list for C/C([O-])=C1\Cc2ccccc2C1=O.C/C([O-])=C1\Cc2ccccc2C1=O.CC[O-].CC[O-].[Ti+4] ?
[reply] TRUE
